Assay Explanation: Drug uptake in bloodstream form of Trypanosoma brucei rhodesiense STIB 900 infected NMRI mouse blood at 25 mg/kg, ip bid administered for 4 consecutive days starting 3 days post infection measured at 1 hr post last dose
Format: ADME, organism-based
Experimental Parameters: read-out: Drug uptake
Provide the recorded concentration at 1 h for the entries that follow.

# input Answer with the recorded concentration at 1 h for the compound listed here: `CSc1ccc2c(c1)C(=O)N[C@H](C(=O)NC1(C#N)CC1)Cc1ccc(c(Cl)c1)OC/C=C/CO2`
# output 951 ng/mL

# input Output measured concentration at 1 h for this item: `N#CC1(NC(=O)[C@@H]2Cc3ccc(c(Cl)c3)OCCCCOc3cc(C(F)(F)F)ccc3C(=O)N2)CC1`
# output 237 ng/mL

====

Assay Explanation: Octanol-water intrinsic distribution co-efficient, log D of the compound at 100 uM at pH 7.4 after 16 to 22 hrs by CAMDIS assay
Assay type: physicochemical
Observation Type: logD at 100 µM
Please give only the number in your answer, with no unit.

# input State, in one line, measured logD at 100 µM of `N#CC1(NC(=O)[C@@H]2Cc3ccc(c(Cl)c3)OCCCCOc3cc(C(F)(F)F)ccc3C(=O)N2)CC1`
# output 3.7

====

Hi there, I'd appreciate the recorded selectivity ratio for every entry that follows.
Assay Explanation: Selectivity index, ratio of IC50 for rat L6 cells to IC50 for bloodstream form of Trypanosoma brucei rhodesiense STIB 900
Format: toxicity
Experimental Parameters: L6 cells, read-out: Ratio IC50

# input Report selectivity ratio for N#CC1(NC(=O)[C@@H]2Cc3ccc(c(Cl)c3)OC/C=C/COc3cc4ccccc4cc3C(=O)N2)CC1 (mixture of isomers)
# output 87600

# input // fetch selectivity ratio given entry CS(=O)(=O)c1ccc2c(c1)C(=O)N[C@H](C(=O)NC1(C#N)CC1)Cc1ccc(c(Cl)c1)OC[C@H]1O[C@@H]1CO2 (mixture of isomers)
# output 5

# input Supply selectivity ratio value. Item: N#CC1(NC(=O)[C@@H]2Cc3ccc(c(I)c3)OC/C=C/COc3cc(C(F)(F)F)ccc3C(=O)N2)CC1 (mixture of isomers)
# output 101

# input Could you please provide reported selectivity ratio for `N#CC1(NC(=O)[C@@H]2Cc3ccc(c(Cl)c3)OC/C=C/CCn3nc(cc3-c3ccccc3)C(=O)N2)CC1` ? Thanks!
# output 66700

====

# pKi per entry for Procathepsin L (Homo sapiens, UniProt P07711)
Please report pKi as the negative decimal logarithm of the molar concentration, giving only the number.

# input Return pKi (reported value) for this compound: CS(=O)(=O)c1ccc2c(c1)C(=O)N[C@H](C(=O)NC1(C#N)CC1)Cc1ccc(c(Cl)c1)OC[C@H]1O[C@@H]1CO2 (mixture of isomers)
# output 8.34

# input // fetch pKi given entry N#CC1(NC(=O)[C@@H]2Cc3ccc(c(Cl)c3)OC/C=C/COc3cc(-c4cnn(C(F)F)c4)ccc3C(=O)N2)CC1 (mixture of isomers)
# output 8.13

# input Please list pKi recorded for the compound Cc1cc2nn1CC/C=C/COc1ccc(cc1Cl)C[C@@H](C(=O)NC1(C#N)CC1)NC2=O (mixture of isomers)
# output 7.39

# input Supply pKi value. Item: `Cn1cc(-c2cc3ccc2OCCCCOc2cc(C(F)(F)F)ccc2C(=O)N[C@H](C(=O)NC2(C#N)CC2)C3)cn1`
# output 6.17

# input Could you please provide reported pKi for `N#CC1(NC(=O)[C@@H]2Cc3ccc(c(Cl)c3)OC/C=C/COc3cc(C(F)(F)F)ccc3C(=O)N2)CC1` ? Thanks!
# output 8.62

# input Entry `N#CC1(NC(=O)[C@@H]2Cc3ccc(c(Cl)c3)OC/C=C/CCn3nc(cc3-c3ccccc3)C(=O)N2)CC1` needs its pKi filled in; supply it.
# output 7.25

# input Look up and state reported pKi for N#CC1(NC(=O)[C@@H]2Cc3ccc(c(Cl)c3)OC/C=C/COc3ccccc3C(C(F)(F)F)N2)CC1 (some centres not stated)
# output 6.35

# input Entry `N#CC1(NC(=O)[C@@H]2Cc3ccc(c(-c4cccnc4)c3)OCCCCOc3ccccc3C(=O)N2)CC1` needs its pKi filled in; supply it.
# output 6.00

# input Find the measured pKi of N#CC1(NC(=O)[C@@H]2Cc3ccc(c(I)c3)OC/C=C/COc3cc(C(F)(F)F)ccc3C(=O)N2)CC1 (mixture of isomers) and report it.
# output 8.25

# input Quote pKi reported for `CC(C)(C)c1cc2nn1CC/C=C/COc1ccc(cc1Cl)C[C@@H](C(=O)NC1(C#N)CC1)NC2=O` please.
# output 8.64

# input Return pKi for the following compound: `N#CC1(NC(=O)[C@@H]2Cc3ccc(c(-c4cncnc4)c3)OCCCCOc3cc(C(F)(F)F)ccc3C(=O)N2)CC1`
# output 5.19

====

Assay Explanation: Ratio of drug level in rat brain to plasma at 3 mg/kg administered via infusion over 30 mins
Experimental Parameters: iv
Observation Type: Kp at 0.5 h
The answer should be a number; do not append a unit.

# input Supply reported Kp at 0.5 h belonging to this molecule: `N#CC1(NC(=O)[C@@H]2Cc3ccc(c(Cl)c3)OCCCCOc3cc(C(F)(F)F)ccc3C(=O)N2)CC1`
# output 0.7

====

What Ki was measured for each of the following?
Unit nM implied. Number only.

# input Param request: Ki | system Procathepsin L (Homo sapiens, UniProt P07711) | item `N#CC1(NC(=O)[C@@H]2Cc3ccc(c(Cl)c3)OC/C=C/CCn3nc(cc3C3CC3)C(=O)N2)CC1`
# output 2.5

# input System Procathepsin L (Homo sapiens, UniProt P07711). Read-out Ki. Item `N#CC1(NC(=O)[C@@H]2Cc3ccc(c(-c4cccnc4)c3)OCCCCOc3cc(C(F)(F)F)ccc3C(=O)N2)CC1` . Report value.
# output 824

# input Write down the reported Ki (system: Procathepsin L (Homo sapiens, UniProt P07711)) of `N#CC1(NC(=O)[C@@H]2Cc3ccc(c(-c4cc[nH]n4)c3)OCCCCOc3ccccc3C(=O)N2)CC1`
# Sequence (P07711 whole entry): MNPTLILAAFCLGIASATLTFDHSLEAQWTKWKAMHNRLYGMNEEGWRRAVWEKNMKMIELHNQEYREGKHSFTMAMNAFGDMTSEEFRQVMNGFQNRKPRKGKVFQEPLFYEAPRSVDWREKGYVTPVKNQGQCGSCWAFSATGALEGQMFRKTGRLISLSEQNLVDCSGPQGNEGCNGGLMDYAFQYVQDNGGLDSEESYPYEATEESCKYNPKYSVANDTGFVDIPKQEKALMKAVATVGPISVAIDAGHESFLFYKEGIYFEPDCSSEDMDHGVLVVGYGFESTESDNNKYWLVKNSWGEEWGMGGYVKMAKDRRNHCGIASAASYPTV
# output 1110

# input Under Procathepsin L (Homo sapiens, UniProt P07711): report Ki of `N#CC1(NC(=O)[C@@H]2Cc3ccc(c(-c4cc[nH]n4)c3)OCCCCOc3cc(C(F)(F)F)ccc3C(=O)N2)CC1` .
# output 1360

# input Give Ki for N#CC1(NC(=O)[C@@H]2Cc3ccc(c(Cl)c3)OC/C=C/COc3cc4ccccc4cc3C(=O)N2)CC1 (mixture of isomers) tested on Procathepsin L (Homo sapiens, UniProt P07711).
# output 1.2

# input // fetch Ki; item: N#CC1(NC(=O)[C@@H]2Cc3ccc(c(Cl)c3)OCC#CCOc3c(F)cc(F)cc3C(=O)N2)CC1 (single isomer, unassigned; atropisomer 1) ; system: Procathepsin L (Homo sapiens, UniProt P07711)
# output 24.1

# input GET Ki where system = Procathepsin L (Homo sapiens, UniProt P07711) and item = `CS(=O)(=O)c1ccc2c(c1)C(=O)N[C@H](C(=O)NC1(C#N)CC1)Cc1ccc(c(Cl)c1)OC/C=C/CO2`
# output 3.7

====

Answer each item with its documented Ki.
The answer should read as a number with its unit following.

# input Identify measured Ki obtained with Rhodesain (Trypanosoma brucei rhodesiense, UniProt Q95PM0) for Cc1cc2nn1CC/C=C/COc1ccc(cc1Cl)C[C@@H](C(=O)NC1(C#N)CC1)NC2=O (mixture of isomers) .
# Sequence (Q95PM0 whole entry): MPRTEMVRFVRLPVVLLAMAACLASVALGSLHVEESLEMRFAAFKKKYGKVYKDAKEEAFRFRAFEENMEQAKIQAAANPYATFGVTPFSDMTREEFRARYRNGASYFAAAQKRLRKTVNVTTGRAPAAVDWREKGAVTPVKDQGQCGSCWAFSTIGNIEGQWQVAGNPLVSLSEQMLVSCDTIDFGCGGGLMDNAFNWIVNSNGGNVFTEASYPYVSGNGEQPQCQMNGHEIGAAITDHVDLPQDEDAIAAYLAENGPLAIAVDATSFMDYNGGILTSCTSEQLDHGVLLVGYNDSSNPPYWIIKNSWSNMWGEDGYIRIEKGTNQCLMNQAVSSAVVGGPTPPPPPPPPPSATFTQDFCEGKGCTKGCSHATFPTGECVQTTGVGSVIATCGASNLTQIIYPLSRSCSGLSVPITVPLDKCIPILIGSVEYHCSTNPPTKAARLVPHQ
# output 52.4 nM

# input Report Ki from Rhodesain (Trypanosoma brucei rhodesiense, UniProt Q95PM0) testing of `N#CC1(NC(=O)[C@@H]2Cc3ccc(c(Cl)c3)OCCCCOc3cc(C(F)(F)F)ccc3C(=O)N2)CC1`
# output 11 nM

# input Give Ki; test system Rhodesain (Trypanosoma brucei rhodesiense, UniProt Q95PM0); compound N#CC1(NC(=O)[C@@H]2Cc3ccc(c(Cl)c3)OC/C=C/COc3ccccc3C(C(F)(F)F)N2)CC1 (some centres undefined)
# output 258 nM

# input Lab note: record Ki of N#CC1(NC(=O)[C@@H]2Cc3ccc(c(Cl)c3)OC/C=C/COc3cc(-c4ccc(Cl)nc4)ccc3C(=O)N2)CC1 (mixture of isomers) tested on Rhodesain (Trypanosoma brucei rhodesiense, UniProt Q95PM0).
# output 3 nM

====

Assayed Target: Rhodesain (Trypanosoma brucei rhodesiense, UniProt Q95PM0)
Assay Explanation: Inhibition of Trypanosoma brucei rhodesiense rhodesain using Cbz-Phe-Arg-AMC as substrate by fluorimetric method
Hi there, I'd appreciate the recorded pKi for every entry that follows.
Conceptually, pKi converts a concentration in mol/L into minus its log10.

# input In one line, give reported pKi of the entry N#CC1(NC(=O)[C@@H]2Cc3ccc(c(Cl)c3)OC/C=C/COc3cc(-c4cnn(C(F)F)c4)ccc3C(=O)N2)CC1 (mixture of isomers) .
# output 8.27

# input Name the recorded pKi of the molecule listed here: `N#CC1(NC(=O)[C@@H]2Cc3ccc(c(-c4cccnc4)c3)OCCCCOc3ccccc3C(=O)N2)CC1`
# output 6.08

# input Name the recorded pKi of the item `N#CC1(NC(=O)[C@@H]2Cc3ccc(c(Cl)c3)OCCCCOc3cc4c(cc3C(=O)N2)CCCC4)CC1` in your answer.
# output 7.59

# input Check the records and state pKi for N#CC1(NC(=O)[C@@H]2Cc3ccc(c(Cl)c3)OCC#CCOc3c(F)cc(F)cc3C(=O)N2)CC1 (single isomer, unassigned; atropisomer 2)
# output 8.32

# input Write down pKi measured for item N#CC1(NC(=O)[C@@H]2Cc3ccc(c(Cl)c3)OCC#CCOc3c(F)cc(F)cc3C(=O)N2)CC1 (single isomer, unassigned; atropisomer 1)
# output 7.09

# input Specify reported pKi for the molecule shown: `N#CC1(NC(=O)[C@@H]2Cc3ccc(c(Cl)c3)OC/C=C/CCn3nc(cc3C3CC3)C(=O)N2)CC1`
# output 7.76

# input Determine its reported pKi: `CS(=O)(=O)c1ccc2c(c1)C(=O)N[C@H](C(=O)NC1(C#N)CC1)Cc1ccc(c(Cl)c1)OC/C=C/CO2`
# output 8.21
